In what follows, each item is paired with its Ki for UniProtKB Q72874.
Supply the numeric figure in nM, leaving out any unit text.

// Ki value for `C/C(=N/O)c1cccc(CN2[C@H](COc3ccccc3)[C@H](O)[C@@H](O)[C@@H](COc3ccccc3)N(Cc3cccc(/C(C)=N\O)c3)S2(=O)=O)c1` : 3.4

response.value for `COC(Cc1cccc(CN2[C@H](COc3ccccc3)[C@H](O)[C@@H](O)[C@@H](COc3ccccc3)N(Cc3cccc(CC(OC)OC)c3)S2(=O)=O)c1)OC` (field: Ki) = 540

Notebook: `CC(=O)c1cccc(CN2[C@H](COc3ccccc3)[C@H](O)[C@@H](O)[C@@H](COc3ccccc3)N(Cc3cccc(C(C)=O)c3)S2(=O)=O)c1` , Ki read as 59

The compound `COC(=O)c1ccc(CN2[C@H](COc3ccccc3)[C@H](O)[C@@H](O)[C@@H](COc3ccccc3)N(Cc3ccc(C(=O)OC)cc3)S2(=O)=O)cc1` showed Ki equal to 84

Notebook: `O=S1(=O)N(Cc2ccc(CO)cc2)[C@H](COc2ccccc2)[C@H](O)[C@@H](O)[C@@H](COc2ccccc2)N1Cc1ccc(CO)cc1` , Ki read as 3.1

Entry under test: `O=S1(=O)N(Cc2cccc(CCO)c2)[C@H](COc2ccccc2)[C@H](O)[C@@H](O)[C@@H](COc2ccccc2)N1Cc1cccc(CCO)c1` . Its Ki was 43
